Please go through the items and note down their NMI1: Nuclear membrane integrity 1 score.
- Test system: HL60 cells
- assay_protocol: AsedaSciences SYSTEMETRIC Cell Health Screen (flow cytometry toxicity profiling)
- test_settings: HL60, 4 h, 5 nM–100 µM, probability 0–1, n = 2
One number for each entry.

[
  {
    "compound": "CC/C(=C(\\c1ccccc1)c1ccc(OCCN(C)C)cc1)c1ccccc1 [Tamoxifen, reference compound]",
    "observed_measurement": 1.00
  }
]

For the 6 compounds below, give their NMI1: Nuclear membrane integrity 1 score values.
1. C#Cc1cccc(Nc2ncnc3ccc(Cl)cc23)c1 [Compound 7]
2. C#Cc1ccc(F)c(Nc2ncnc3cc(I)ccc23)c1 [Compound 38]
3. O=C1CC2(CCCC2)CC(=O)N1CCCCN1CCN(c2ncccn2)CC1 [Buspirone, reference compound]
4. C#Cc1cccc(Nc2ncnc3ccc(F)cc23)c1 [Compound 5]
5. C#Cc1cccc(Nc2c(C#N)cnc3ccc(I)cc23)c1 [Compound 28]
6. C#Cc1cccc(Nc2c(C#N)cnc3cc(I)ccc23)c1 [Compound 32]

Given back:
1: 0.13; 2: 0.99; 3: 0.070; 4: 0.082; 5: 0.74; 6: 0.95

For each of the items listed, what is its NMI1: Nuclear membrane integrity 1 score?
1. C#Cc1cccc(Nc2ncnc3cc(OC)c(OC)cc23)c1F [Compound 43]
2. CC(CN1c2ccccc2Sc2ccccc21)N(C)C (stereo not drawn) [Promethazine, reference compound]

Given back:
1. 0.10
2. 0.84
